The values you see were collected from patent US9315522B2.

assay: Cytotoxicity MTT assay (HELAM); type: cell-based, Human; conditions: human, HelaM cells, read-out: HELAM (222.125) CC50
Measurement kind: CC50 at 72 h

>  <Compound>
COc1cncc(C(=O)Nc2ccc(/C=C/C(=O)N3CC4C=C(c5ccsc5)CC4C3)cn2)c1 (stereo not shown) [compound 33]

>  <Measurement kind>
CC50 at 72 h

>  <Obs value>
> 11.9 µg/mL

$$$$
>  <Compound>
O=C1Nc2ncc(/C=C/C(=O)N3CC4C=C(c5ccccc5)CC4C3)cc2CN2CCSCC12 (stereo not shown) [compound 77]

>  <Measurement kind>
CC50 at 72 h

>  <Obs value>
1.2 µg/mL

$$$$
>  <Compound>
CN1CC(=O)Nc2ncc(/C=C/C(=O)N3C[C@@H]4CN(c5cccnc5)C[C@@H]4C3)cc2C1 [compound 62]

>  <Measurement kind>
CC50 at 72 h

>  <Obs value>
> 10.5 µg/mL

$$$$
>  <Compound>
CN1CC(=O)Nc2ncc(/C=C/C(=O)N3C[C@@H]4CN(c5ccccc5)C[C@@H]4C3)cc2C1 [compound 58]

>  <Measurement kind>
CC50 at 72 h

>  <Obs value>
> 10.5 µg/mL

$$$$
>  <Compound>
COc1ccccc1N1C[C@H]2CN(C(=O)/C=C/c3cnc4c(c3)CN(C)CC(=O)N4)C[C@H]2C1 [compound 59]

>  <Measurement kind>
CC50 at 72 h

>  <Obs value>
> 11.2 µg/mL

$$$$
>  <Compound>
O=C(Nc1ccc(/C=C/C(=O)N2CC3C=C(c4ccsc4)CC3C2)cn1)c1cccnc1 (stereo not shown) [compound 4]

>  <Measurement kind>
CC50 at 72 h

>  <Obs value>
0.97 µg/mL

$$$$
>  <Compound>
Cc1occc1C(=O)Nc1ccc(/C=C/C(=O)N2CC3C=C(c4ccccc4)CC3C2)cn1 (stereo not shown) [compound 11]

>  <Measurement kind>
CC50 at 72 h

>  <Obs value>
5.16 µg/mL

$$$$
>  <Compound>
O=C1Nc2ncc(/C=C/C(=O)N3CC4C=C(c5ccccc5)CC4C3)cc2C(=O)N2CCOCC12 (stereo not shown) [compound 76]

>  <Measurement kind>
CC50 at 72 h

>  <Obs value>
> 11.8 µg/mL

$$$$
>  <Compound>
O=C1CNC(=O)c2cc(/C=C/C(=O)N3CC4C=C(c5ccccc5)CC4C3)cnc2N1 (stereo not shown) [compound 66]

>  <Measurement kind>
CC50 at 72 h

>  <Obs value>
> 10.4 µg/mL

$$$$
>  <Compound>
O=C1CNCc2cc(/C=C/C(=O)N3C[C@H]4CC(c5ccccc5)=C[C@H]4C3)cnc2N1 (single isomer, unassigned) [compound 46]

>  <Measurement kind>
CC50 at 72 h

>  <Obs value>
> 4.05 µg/mL

$$$$
>  <Compound>
O=C1Nc2ncc(/C=C/C(=O)N3CC4C=C(c5nccs5)CC4C3)cc2CN2CCOCC12 (stereo not shown) [Cpd. No. 74]

>  <Measurement kind>
CC50 at 72 h

>  <Obs value>
> 11.2 µg/mL

$$$$
>  <Compound>
O=C1CNCc2cc(/C=C/C(=O)N3CC4C=C(c5ccccc5)CC4C3)cnc2N1 (stereo not shown) [Cpd. No. 38]

>  <Measurement kind>
CC50 at 72 h

>  <Obs value>
> 10.1 µg/mL

$$$$
>  <Compound>
COC(=O)CCC(=O)Nc1ccc(/C=C/C(=O)N2CC3C=C(c4ccccc4)CC3C2)cn1 (stereo not shown) [compound 18]

>  <Measurement kind>
CC50 at 72 h

>  <Obs value>
> 11.2 µg/mL

$$$$
